- system_tested: Toll-like receptor 4 (Mus musculus, UniProt Q9QUK6)
- Sequence (Q9QUK6 whole entry): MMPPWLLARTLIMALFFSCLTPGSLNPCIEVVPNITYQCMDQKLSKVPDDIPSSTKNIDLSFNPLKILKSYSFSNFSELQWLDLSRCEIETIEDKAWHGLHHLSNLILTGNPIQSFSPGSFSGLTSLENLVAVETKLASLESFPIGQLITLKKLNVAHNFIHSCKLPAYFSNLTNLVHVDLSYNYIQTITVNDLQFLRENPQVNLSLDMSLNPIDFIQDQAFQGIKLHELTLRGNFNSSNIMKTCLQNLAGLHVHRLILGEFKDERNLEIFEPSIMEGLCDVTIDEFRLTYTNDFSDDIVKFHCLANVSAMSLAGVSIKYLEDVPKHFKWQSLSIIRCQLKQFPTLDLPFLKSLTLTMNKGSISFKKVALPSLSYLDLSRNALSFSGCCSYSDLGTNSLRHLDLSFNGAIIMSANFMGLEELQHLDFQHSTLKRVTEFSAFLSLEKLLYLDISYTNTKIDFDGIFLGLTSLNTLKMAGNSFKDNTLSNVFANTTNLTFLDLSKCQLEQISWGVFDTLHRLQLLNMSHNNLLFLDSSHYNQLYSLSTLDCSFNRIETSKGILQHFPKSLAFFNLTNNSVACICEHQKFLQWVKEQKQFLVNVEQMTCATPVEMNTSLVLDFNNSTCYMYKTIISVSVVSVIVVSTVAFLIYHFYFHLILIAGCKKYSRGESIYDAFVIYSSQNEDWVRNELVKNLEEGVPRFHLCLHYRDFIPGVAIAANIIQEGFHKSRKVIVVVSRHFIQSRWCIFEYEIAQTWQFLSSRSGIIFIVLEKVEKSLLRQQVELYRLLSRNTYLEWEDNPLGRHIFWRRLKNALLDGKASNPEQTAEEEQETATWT
- assay_overview: Antagonist activity at mouse TLR4 expressed in HEK293 cells co-transfected with mouse MD-2/CD14 assessed as inhibition of LPS-stimulated receptor signal after 2 to 4 hrs by dual luciferase reporter gene assay
reported_metric: IC50 (nM)

CCCCCC(=O)O[C@@H]1[C@H](OC(=O)CCCCC)[C@@H](O[C@H]2O[C@H](CSCCN)[C@@H](OC(=O)CCCCC)[C@H](OC(=O)CCCCC)[C@H]2OC(=O)CCCCC)O[C@H](CSCCN)[C@H]1OC(=O)CCCCC = 800
CCCCCC(=O)O[C@@H]1[C@H](OC(=O)CCCCC)[C@@H](O[C@H]2O[C@H](Cn3cc(CN(CCN)CCN)nn3)[C@@H](OC(=O)CCCCC)[C@H](OC(=O)CCCCC)[C@H]2OC(=O)CCCCC)O[C@H](Cn2cc(CN(CCN)CCN)nn2)[C@H]1OC(=O)CCCCC = 200

A: CCCCCC(=O)O[C@@H]1[C@@H](OC(=O)CCCCC)[C@@H](OC)O[C@H](CSCCNC(=S)NCCN(CCN)CCN)[C@H]1OC(=O)CCCCC.Cl
B: CCCCCC(=O)O[C@@H]1[C@H](OC(=O)CCCCC)[C@@H](O[C@H]2O[C@H](Cn3cc(CNC(=S)NCCN)nn3)[C@@H](OC(=O)CCCCC)[C@H](OC(=O)CCCCC)[C@H]2OC(=O)CCCCC)O[C@H](Cn2cc(CNC(=S)NCCN)nn2)[C@H]1OC(=O)CCCCC
Ask: Lower value for measured IC50? Options: A , B Reply briefly: the label of your chosen item.
Result: B
(B: 600 nM, A: 3300 nM)

====

- system_tested: Toll-like receptor 4 (Homo sapiens, UniProt O00206)
- Sequence (O00206 whole entry): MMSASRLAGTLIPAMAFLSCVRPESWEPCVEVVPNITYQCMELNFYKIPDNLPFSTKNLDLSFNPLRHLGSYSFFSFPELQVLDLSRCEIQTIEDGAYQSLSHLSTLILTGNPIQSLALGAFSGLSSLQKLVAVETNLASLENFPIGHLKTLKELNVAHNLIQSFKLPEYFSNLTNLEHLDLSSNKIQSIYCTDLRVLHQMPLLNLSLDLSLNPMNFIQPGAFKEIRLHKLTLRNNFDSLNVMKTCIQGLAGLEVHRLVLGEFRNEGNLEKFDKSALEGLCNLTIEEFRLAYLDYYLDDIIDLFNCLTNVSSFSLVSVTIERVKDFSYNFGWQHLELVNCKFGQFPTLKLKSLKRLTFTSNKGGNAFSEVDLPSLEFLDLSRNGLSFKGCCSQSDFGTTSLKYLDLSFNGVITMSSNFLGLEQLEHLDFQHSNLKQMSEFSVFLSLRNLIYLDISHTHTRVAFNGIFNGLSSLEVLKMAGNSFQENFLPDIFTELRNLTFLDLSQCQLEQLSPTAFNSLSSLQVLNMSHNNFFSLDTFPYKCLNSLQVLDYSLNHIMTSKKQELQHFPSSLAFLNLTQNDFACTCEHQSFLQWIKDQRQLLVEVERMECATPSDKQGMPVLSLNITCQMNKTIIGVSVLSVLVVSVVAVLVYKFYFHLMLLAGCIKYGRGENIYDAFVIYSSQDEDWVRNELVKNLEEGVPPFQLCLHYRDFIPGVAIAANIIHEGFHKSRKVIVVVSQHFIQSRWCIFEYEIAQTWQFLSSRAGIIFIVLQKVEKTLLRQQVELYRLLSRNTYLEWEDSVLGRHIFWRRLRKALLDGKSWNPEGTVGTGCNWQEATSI
- assay_overview: Antagonist activity at human TLR4 expressed in HEK293 cells co-transfected with human MD-2/CD14 assessed as inhibition of LPS-stimulated receptor signal after 2 to 4 hrs by dual luciferase reporter gene assay
- Assay type: cell-based
pIC50: −log10 of the molar value.
reported_metric: pIC50

I: CCCCCC(=O)O[C@@H]1[C@H](OC(=O)CCCCC)[C@@H](O[C@H]2O[C@H](Cn3cc(CNC(=S)NCCN)nn3)[C@@H](OC(=O)CCCCC)[C@H](OC(=O)CCCCC)[C@H]2OC(=O)CCCCC)O[C@H](Cn2cc(CNC(=S)NCCN)nn2)[C@H]1OC(=O)CCCCC
II: CCCCCC(=O)O[C@@H]1[C@@H](OC(=O)CCCCC)[C@@H](OC)O[C@H](CSCCNC(=S)NCCN(CCN)CCN)[C@H]1OC(=O)CCCCC.Cl
III: CCCCCC(=O)O[C@@H]1[C@H](OC(=O)CCCCC)[C@@H](O[C@H]2O[C@H](Cn3cc(CN(CCN)CCN)nn3)[C@@H](OC(=O)CCCCC)[C@H](OC(=O)CCCCC)[C@H]2OC(=O)CCCCC)O[C@H](Cn2cc(CN(CCN)CCN)nn2)[C@H]1OC(=O)CCCCC
IV: CCCCCC(=O)O[C@@H]1[C@H](OC(=O)CCCCC)[C@@H](O[C@H]2O[C@H](CSCCN)[C@@H](OC(=O)CCCCC)[C@H](OC(=O)CCCCC)[C@H]2OC(=O)CCCCC)O[C@H](CSCCN)[C@H]1OC(=O)CCCCC
Ask: Thanks in advance: please rank these 4 entries by pIC50, highest to lowest. Please express your ranking as an ordered list of the labels.
Result: III, I, IV, II
(III: 6.70, I: 6.22, IV: 5.85, II: 5.41)

Source of measurements: ChEMBL document CHEMBL3352094
